Target: Epidermal growth factor receptor (Homo sapiens, UniProt P00533, C797S/EX19DEL/T790M)
Sequence (P00533 whole entry, looked up, stated change not applied): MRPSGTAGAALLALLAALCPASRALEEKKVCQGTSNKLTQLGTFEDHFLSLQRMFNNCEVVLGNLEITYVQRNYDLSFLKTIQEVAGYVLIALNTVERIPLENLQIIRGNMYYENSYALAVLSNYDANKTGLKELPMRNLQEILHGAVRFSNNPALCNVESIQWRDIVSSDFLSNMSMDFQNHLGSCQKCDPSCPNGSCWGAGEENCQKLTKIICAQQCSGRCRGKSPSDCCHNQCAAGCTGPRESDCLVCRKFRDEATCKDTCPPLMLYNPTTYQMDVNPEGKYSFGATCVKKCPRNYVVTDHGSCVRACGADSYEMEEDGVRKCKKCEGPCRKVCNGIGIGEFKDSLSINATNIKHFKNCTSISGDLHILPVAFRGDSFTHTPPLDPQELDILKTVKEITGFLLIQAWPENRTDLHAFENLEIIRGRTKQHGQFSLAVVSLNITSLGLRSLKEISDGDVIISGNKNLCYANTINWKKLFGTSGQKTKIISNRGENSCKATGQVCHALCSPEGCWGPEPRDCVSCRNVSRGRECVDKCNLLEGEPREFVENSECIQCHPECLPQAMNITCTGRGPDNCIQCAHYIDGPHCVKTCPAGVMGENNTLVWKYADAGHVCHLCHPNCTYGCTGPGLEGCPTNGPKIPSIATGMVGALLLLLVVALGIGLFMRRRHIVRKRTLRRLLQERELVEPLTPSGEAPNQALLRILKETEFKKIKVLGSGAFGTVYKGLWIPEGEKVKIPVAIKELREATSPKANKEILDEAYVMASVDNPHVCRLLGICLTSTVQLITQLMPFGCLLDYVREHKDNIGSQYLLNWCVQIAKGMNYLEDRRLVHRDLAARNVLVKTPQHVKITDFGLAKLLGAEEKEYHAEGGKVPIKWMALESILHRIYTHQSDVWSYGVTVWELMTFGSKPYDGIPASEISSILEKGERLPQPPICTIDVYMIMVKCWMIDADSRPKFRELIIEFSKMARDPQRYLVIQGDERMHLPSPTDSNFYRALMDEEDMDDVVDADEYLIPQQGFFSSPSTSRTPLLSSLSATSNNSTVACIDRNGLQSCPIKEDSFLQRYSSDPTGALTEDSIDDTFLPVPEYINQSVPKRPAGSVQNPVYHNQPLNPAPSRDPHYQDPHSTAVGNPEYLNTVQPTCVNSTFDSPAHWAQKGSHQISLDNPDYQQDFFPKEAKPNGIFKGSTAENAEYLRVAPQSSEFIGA
Experiment: Inhibition of EGFR Del19/T790M/C797S triple mutant (unknown origin) using TK as substrate incubated for 120 mins in presence of ATP by HTRF assay
# pIC50 per entry
The value called pIC50 is obtained by taking minus log10 of the concentration in mol/L.

Take a look at these entries with their results.
- chemSmiles: "COc1cc(N2CCC(N(C)CCN(C)C)CC2)c(C)cc1Nc1ncc(Br)c(Nc2ccc3nccnc3c2P(C)(C)=O)n1"
  pIC50: 10.22
- chemSmiles: "COc1cc(N2CCC(N3CC(N(C)C)C3)CC2)c(C)cc1Nc1ncc(Br)c(Nc2ccc3nccnc3c2P(C)(C)=O)n1"
  pIC50: 10.22
- chemSmiles: "COc1cc(N2CCC(N3CC(F)(CO)C3)CC2)c(C)cc1Nc1ncc(Br)c(Nc2ccc3nccnc3c2P(C)(C)=O)n1"
  pIC50: 9.89
- chemSmiles: "CCc1cc(Nc2ncc(Cl)c(Nc3ccc4nccnc4c3P(C)(C)=O)n2)c(OC)cc1N1CCC(N2CC(N(C)C)C2)CC1"
  pIC50: 9.21
- chemSmiles: "COc1cc(N2CCC(N3CC(C)(CO)C3)CC2)c(C)cc1Nc1ncc(Br)c(Nc2ccc3nccnc3c2P(C)(C)=O)n1"
  pIC50: 10.22

Requested read-out: pIC50. Entry: CCc1cc(Nc2ncc(Br)c(Nc3ccc4nccnc4c3P(C)(C)=O)n2)c(OC)cc1N1CCC(N2CC(N(C)C)C2)CC1 9.96

Try this compound next: COCC1CN(C2CCN(c3cc(OC)c(Nc4ncc(Br)c(Nc5ccc6nccnc6c5P(C)(C)=O)n4)cc3C)CC2)C1 9.16

What would you report for COc1cc(N2CCC(N3CC(C(C)(C)O)C3)CC2)c(C)cc1Nc1ncc(Br)c(Nc2ccc3nccnc3c2P(C)(C)=O)n1 ? 10.15

Entry CCOC1CN(C2CCN(c3cc(OC)c(Nc4ncc(Br)c(Nc5ccc6nccnc6c5P(C)(C)=O)n4)cc3C)CC2)C1 please 9.19

What do you have for COc1cc(N2CCC(N3CC(CC#N)C3)CC2)c(C)cc1Nc1ncc(Br)c(Nc2ccc3nccnc3c2P(C)(C)=O)n1 ? 9.48

---

Assay: AUC (0 to t) in BALB/c mouse at 5 mg/kg, po measured upto 24 hrs by LC-MS/MS analysis
Assay type: ADME, organism-based
Parameters: time < 24 hrs, dose 5 mg/kg, route po
Conditions: in vivo
assayMetric: AUC(0-t) at 24 h

Some compounds with recorded AUC(0-t) at 24 h:
- chemSmiles: "COc1cc(N2CCC(N3CC(N(C)C)C3)CC2)c(C)cc1Nc1ncc(Br)c(Nc2ccc3nccnc3c2P(C)(C)=O)n1"
  assayMetric: "AUC(0-t) at 24 h"
  result: "15400 ng·h/mL"
- chemSmiles: "COc1cc(N2CCC(N3CCN(C)CC3)CC2)ccc1Nc1ncc(Cl)c(Nc2ccccc2P(C)(C)=O)n1"
  assayMetric: "AUC(0-t) at 24 h"
  result: "6490 ng·h/mL"
- chemSmiles: "COc1cc(N2CCC(N3C[C@H]4COC[C@H]4C3)CC2)c(C)cc1Nc1ncc(Br)c(Nc2ccc3nccnc3c2P(C)(C)=O)n1"
  assayMetric: "AUC(0-t) at 24 h"
  result: "11200 ng·h/mL"
- chemSmiles: "COc1cc(N2CCC(N3CC(CC#N)C3)CC2)c(C)cc1Nc1ncc(Br)c(Nc2ccc3nccnc3c2P(C)(C)=O)n1"
  assayMetric: "AUC(0-t) at 24 h"
  result: "11200 ng·h/mL"

Read the next record carefully.
What value of AUC(0-t) at 24 h has been reported for the following compound? COc1cc(N2CCC(N3CC(F)(CO)C3)CC2)c(C)cc1Nc1ncc(Br)c(Nc2ccc3nccnc3c2P(C)(C)=O)n1 16900 ng·h/mL

---

Assay: Cytotoxicity against mouse Ba/F3 EGFR-Del19/T790M/C797S cells assessed as cell growth inhibition measured after 72 hrs by CellTiter-Glo luminescent assay
Assay type: functional, cell-based
Overview of reported IC50 across a group of molecules:
Answer in nM, number only, no unit symbol.

Sample answers from the record:
- chemSmiles: "COc1cc(N2CCC(N3CC(CC#N)C3)CC2)c(C)cc1Nc1ncc(Br)c(Nc2ccc3nccnc3c2P(C)(C)=O)n1"
  unitString: "nM"
  IC50: 12.7
- chemSmiles: "COCC1CN(C2CCN(c3cc(OC)c(Nc4ncc(Br)c(Nc5ccc6nccnc6c5P(C)(C)=O)n4)cc3C)CC2)C1"
  unitString: "nM"
  IC50: 15
- chemSmiles: "CCc1cc(Nc2ncc(C(F)(F)F)c(Nc3ccc4nccnc4c3P(C)(C)=O)n2)c(OC)cc1N1CCC(N2CC(N(C)C)C2)CC1"
  unitString: "nM"
  IC50: 54
- chemSmiles: "COc1cc(N2CCC(N3CC(F)(CO)C3)CC2)c(C)cc1Nc1ncc(Br)c(Nc2ccc3nccnc3c2P(C)(C)=O)n1"
  unitString: "nM"
  IC50: 18.7
- chemSmiles: "COc1cc(N2CCC(N3CC(N(C)C)C3)CC2)c(C)cc1Nc1ncc(SC)c(Nc2ccc3nccnc3c2P(C)(C)=O)n1"
  unitString: "nM"
  IC50: 19.7
- chemSmiles: "COc1cc(N2CCC(N3CCN(C)CC3)CC2)ccc1Nc1ncc(Cl)c(Nc2ccccc2P(C)(C)=O)n1"
  unitString: "nM"
  IC50: 433

Which IC50 value is on record for CCOC1CN(C2CCN(c3cc(OC)c(Nc4ncc(Br)c(Nc5ccc6nccnc6c5P(C)(C)=O)n4)cc3C)CC2)C1 ? 29

---

Below is a list of entries, each paired with its recorded pIC50 value.
Assay: Cytotoxicity against mouse Ba/F3 EGFR-Del19/T790M/C797S cells assessed as cell growth inhibition measured after 72 hrs by CellTiter-Glo luminescent assay
Assay type: functional, cell-based
In simple prose, pIC50 is minus the logarithm base ten of a concentration in moles per litre.

Below: 3 compounds and their reported pIC50.
- chemSmiles: "CCc1cc(Nc2ncc(Cl)c(Nc3ccc4nccnc4c3P(C)(C)=O)n2)c(OC)cc1N1CCC(N2CC(N(C)C)C2)CC1"
  pIC50: 7.53
- chemSmiles: "COc1cc(N2CCC(N3CC(N(C)C)C3)CC2)c(C)cc1Nc1ncc(Br)c(Nc2ccc3nccnc3c2P(C)(C)=O)n1"
  pIC50: 7.90
- chemSmiles: "COCC1(C)CN(C2CCN(c3cc(OC)c(Nc4ncc(Br)c(Nc5ccc6nccnc6c5P(C)(C)=O)n4)cc3C)CC2)C1"
  pIC50: 7.65

Field: next compound
Given the entry COc1cc(N2CCC(N3CC(CO)C3)CC2)c(C)cc1Nc1ncc(Br)c(Nc2ccc3nccnc3c2P(C)(C)=O)n1 , report its measured pIC50. 7.39

---

Assay: Half life in BALB/c mouse at 5 mg/kg, po measured upto 24 hrs by LC/MS-MS analysis
Assay type: ADME, organism-based
Conditions: in vivo
Label fulfilled when half-life is at or above 3 h; anything below gets not fulfilled.

Worked examples follow.
- chemSmiles: "COc1cc(N2CCC(N3CC(F)(CO)C3)CC2)c(C)cc1Nc1ncc(Br)c(Nc2ccc3nccnc3c2P(C)(C)=O)n1"
  assignedCategory: "fulfilled"
- chemSmiles: "COc1cc(N2CCC(N3CC(N(C)C)C3)CC2)c(C)cc1Nc1ncc(Br)c(Nc2ccc3nccnc3c2P(C)(C)=O)n1"
  assignedCategory: "fulfilled"

Textbook exercise: given the entry COc1cc(N2CCC(N3CC(CC#N)C3)CC2)c(C)cc1Nc1ncc(Br)c(Nc2ccc3nccnc3c2P(C)(C)=O)n1 , state whether its half-life is greater than or equal to 3 h. fulfilled

Could you do the same for COc1cc(N2CCC(N3CCN(C)CC3)CC2)ccc1Nc1ncc(Cl)c(Nc2ccccc2P(C)(C)=O)n1 , please? not fulfilled

What about this compound? COc1cc(N2CCC(N3C[C@H]4COC[C@H]4C3)CC2)c(C)cc1Nc1ncc(Br)c(Nc2ccc3nccnc3c2P(C)(C)=O)n1 fulfilled

---

Assay: Cytotoxicity against mouse Ba/F3 EGFR-Del19/T790M/C797S cells assessed as cell growth inhibition measured after 72 hrs by CellTiter-Glo luminescent assay
Assay type: functional, cell-based
The entries below come with measured IC50 values attached.
The response must be a number in nM with no trailing unit.

Examples from the recorded data:
- chemSmiles: "COc1cc(N2CCC(N3CCN(C(C)=O)CC3)CC2)c(C)cc1Nc1ncc(Br)c(Nc2ccc3nccnc3c2P(C)(C)=O)n1"
  unitString: "nM"
  IC50: 17.7
- chemSmiles: "COc1cc(N2CCC(N3CC(C(C)(C)O)C3)CC2)c(C)cc1Nc1ncc(Br)c(Nc2ccc3nccnc3c2P(C)(C)=O)n1"
  unitString: "nM"
  IC50: 18
- chemSmiles: "COc1cc(N2CCC(N3CC(C)(CO)C3)CC2)c(C)cc1Nc1ncc(Br)c(Nc2ccc3nccnc3c2P(C)(C)=O)n1"
  unitString: "nM"
  IC50: 17.7
- chemSmiles: "COc1cc(N2CCC(N(C)CCN(C)C)CC2)c(C)cc1Nc1ncc(Br)c(Nc2ccc3nccnc3c2P(C)(C)=O)n1"
  unitString: "nM"
  IC50: 16
- chemSmiles: "CCc1cc(Nc2ncc(Br)c(Nc3ccc4nccnc4c3P(C)(C)=O)n2)c(OC)cc1N1CCC(N2CC(N(C)C)C2)CC1"
  unitString: "nM"
  IC50: 16.3
- chemSmiles: "COc1cc(N2CCC(N3C[C@H]4COC[C@H]4C3)CC2)c(C)cc1Nc1ncc(Br)c(Nc2ccc3nccnc3c2P(C)(C)=O)n1"
  unitString: "nM"
  IC50: 11
- chemSmiles: "COc1cc(N2CCC(N3CC(N(C)C)C3)CC2)c(C)cc1Nc1ncc(Cl)c(Nc2ccc3nccnc3c2P(C)(C)=O)n1"
  unitString: "nM"
  IC50: 16.3

What does the data say about its IC50? Entry: COc1cc(N2CCC(N3CC[C@@H](N(C)C)C3)CC2)c(C)cc1Nc1ncc(Br)c(Nc2ccc3nccnc3c2P(C)(C)=O)n1 9
